Data origin: patent US5736376A

Biological target: ECE-2 (Bos taurus, UniProt P0DPE2)
Construct: solubilized crude membranes or live cells
Sequence (P0DPE2 97-883): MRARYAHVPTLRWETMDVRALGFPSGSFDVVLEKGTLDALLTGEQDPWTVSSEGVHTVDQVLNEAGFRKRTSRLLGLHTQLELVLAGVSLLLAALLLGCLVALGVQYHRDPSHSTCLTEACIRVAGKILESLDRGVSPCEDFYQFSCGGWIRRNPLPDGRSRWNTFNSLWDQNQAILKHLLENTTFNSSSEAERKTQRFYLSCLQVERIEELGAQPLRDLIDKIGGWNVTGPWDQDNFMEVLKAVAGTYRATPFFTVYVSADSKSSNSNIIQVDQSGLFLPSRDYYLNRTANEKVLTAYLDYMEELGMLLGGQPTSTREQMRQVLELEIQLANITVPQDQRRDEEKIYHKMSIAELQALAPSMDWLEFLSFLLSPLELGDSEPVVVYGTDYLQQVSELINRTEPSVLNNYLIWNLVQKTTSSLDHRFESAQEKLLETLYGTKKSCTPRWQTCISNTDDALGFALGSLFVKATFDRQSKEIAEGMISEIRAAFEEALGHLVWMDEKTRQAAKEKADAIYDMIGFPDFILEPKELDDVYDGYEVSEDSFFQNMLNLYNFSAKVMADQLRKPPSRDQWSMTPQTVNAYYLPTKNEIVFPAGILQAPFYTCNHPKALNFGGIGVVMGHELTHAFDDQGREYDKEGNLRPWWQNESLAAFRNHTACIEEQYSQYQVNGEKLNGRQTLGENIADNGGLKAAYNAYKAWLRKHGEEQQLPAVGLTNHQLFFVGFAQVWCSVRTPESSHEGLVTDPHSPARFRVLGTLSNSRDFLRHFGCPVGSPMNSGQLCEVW
Test: Double-transfection live cell assay: mature ET-1 secretion by CHO/ECE-2 cells transfected with preproET-1 cDNA
Type: cell-based, bovine
Settings: production of mature ET-1; 12 h; ECE-2-preproET-1 double transfected cells; read-out: apparent IC50, live cell assay, CHO/ECE-2
pIC50: −log10 of the molar value.

compound | target | pIC50
CC(C)C[C@H](NP(=O)(O)O[C@@H]1O[C@@H](C)[C@H](O)[C@@H](O)[C@H]1O)C(=O)N[C@@H](Cc1c[nH]c2ccccc12)C(=O)O [Phosphoramidon] | ECE-2 (Bos taurus, UniProt P0DPE2) | ~4.70

====

Target: ECE-1 (Bos taurus)
Construct: made in house
Sequence (P42891 1-754): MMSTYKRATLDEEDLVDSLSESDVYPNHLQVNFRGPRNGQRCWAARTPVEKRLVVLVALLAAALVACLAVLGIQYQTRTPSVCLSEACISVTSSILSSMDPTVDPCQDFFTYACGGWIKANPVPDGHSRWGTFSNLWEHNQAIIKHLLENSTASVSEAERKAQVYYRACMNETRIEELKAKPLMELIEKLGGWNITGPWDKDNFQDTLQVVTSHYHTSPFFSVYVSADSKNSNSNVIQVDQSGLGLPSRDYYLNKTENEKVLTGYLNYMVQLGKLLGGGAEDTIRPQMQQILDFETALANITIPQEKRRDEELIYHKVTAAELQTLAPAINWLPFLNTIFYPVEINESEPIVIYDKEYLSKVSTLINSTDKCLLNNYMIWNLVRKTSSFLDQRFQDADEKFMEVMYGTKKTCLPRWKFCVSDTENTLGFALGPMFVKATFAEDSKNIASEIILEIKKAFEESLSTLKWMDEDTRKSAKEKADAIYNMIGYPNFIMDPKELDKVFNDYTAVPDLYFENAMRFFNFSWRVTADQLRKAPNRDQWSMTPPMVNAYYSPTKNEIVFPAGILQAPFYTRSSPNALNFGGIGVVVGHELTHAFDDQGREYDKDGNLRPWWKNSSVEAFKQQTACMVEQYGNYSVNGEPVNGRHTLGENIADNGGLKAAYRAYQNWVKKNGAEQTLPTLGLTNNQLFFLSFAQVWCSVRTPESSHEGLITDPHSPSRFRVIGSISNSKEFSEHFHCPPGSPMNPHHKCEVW
Experiment: Protease inhibitor assay of ECE-1, solubilized CHO/ECE-1 membranes, big ET-1 conversion, pH 6.8
Assay type: biochemical, bovine
Conditions: sensitivity to protease inhibitors, Table 2
measuredProperty: inhibition of ECE-1

molecule | measuredProperty | dataValue
COc1c2c(c(O)c3c1C(O)Cc1cc(CC(C)O)c(C(=O)O)c(O)c1-3)C(=O)c1cccc(O)c1C2=O (stereo not shown) | inhibition of ECE-1 | inhibited
O=C(O)CNC(=O)C(CS)Cc1ccccc1 (stereo not shown) | inhibition of ECE-1 | not inhibited
CC(C)C[C@H](NP(=O)(O)O[C@@H]1O[C@@H](C)[C@H](O)[C@@H](O)[C@H]1O)C(=O)N[C@@H](Cc1c[nH]c2ccccc12)C(=O)O | inhibition of ECE-1 | inhibited
C[C@H](CS)C(=O)N1CCC[C@H]1C(=O)O | inhibition of ECE-1 | not inhibited

====

Molecular target: ECE-1 (Bos taurus, UniProt P42891)
Construct: made in house
Test: Protease inhibitor assay of ECE-1, solubilized CHO/ECE-1 membranes, big ET-1 conversion, pH 6.8
Type: biochemical, bovine
Conditions: in vitro, pH 6.8

molecule | target | IC50 / µM
COc1c2c(c(O)c3c1C(O)Cc1cc(CC(C)O)c(C(=O)O)c(O)c1-3)C(=O)c1cccc(O)c1C2=O (stereo not shown) | ECE-1 (Bos taurus, UniProt P42891) | 2
